Experiment: Selectivity for rabbit cathepsin K over human cathepsin S
Property Name: Selectivity ratio

compound=CS(=O)(=O)c1ccc(-c2c[nH]nc2[C@@H]2CCC(F)(F)C[C@H]2C(=O)NC2(C#N)CC2)cc1 measured_result=2300
compound=Cn1cc(-c2ccc(S(C)(=O)=O)cc2)c([C@@H]2CCC(F)(F)C[C@H]2C(=O)NC2(C#N)CC2)n1 measured_result=1200
compound=CSc1ccc(-c2ccccc2[C@@H]2CCC(F)(F)C[C@H]2C(=O)NCC#N)cc1 measured_result=940
compound=CS(=O)(=O)c1ccc(-c2cn(CC(F)(F)F)nc2[C@@H]2CCC(Cl)(Cl)C[C@H]2C(=O)NC2(C#N)CC2)cc1 measured_result=4300

P: CS(=O)(=O)c1ccc(-c2cn(CC(F)(F)F)nc2[C@@H]2CCC(F)(F)C[C@H]2C(=O)NC2(C#N)CC2)cc1
Q: CSc1ccc(-c2cn(C)nc2[C@@H]2CCC(F)(F)C[C@H]2C(=O)NCC#N)cc1 (racemic)
[in] Kindly identify which of P and Q has the larger recorded Selectivity ratio value. Returns: label corresponding to the selected item.
[out] P

###

Experiment: Half life in rhesus monkey at 1 mL/kg, po
Format: ADME, organism-based, Macaca mulatta
Conditions: in vivo
Property Name: half-life (h)
Output spec: scalar in h, unitless text.

[in] Any idea what half-life was measured for CS(=O)(=O)c1ccc(-c2cn(CC(F)(F)F)nc2[C@@H]2CCC(Cl)(Cl)C[C@H]2C(=O)NC2(C#N)CC2)cc1 ?
[out] 13

###

Experiment: Drug level in ovariectomized monkey model of osteoporosis at 1 mg/kg, po qd for 1 week measured after 24 hrs of last dose
Type: ADME, organism-based, Macaca mulatta
Parameters: dose 1 mg/kg, route oral
Details: female, rhesus monkey, in vivo, read-out: Drug uptake
Property Name: concentration at 24 h (nM)
Expressed in nM, but write only the number.

[in] Consider the molecule shown here: CS(=O)(=O)c1ccc(-c2cn(CC(F)(F)F)nc2[C@@H]2CCC(Cl)(Cl)C[C@H]2C(=O)NC2(C#N)CC2)cc1 What is its recorded concentration at 24 h?
[out] 80

###

Experiment: Protein binding in human plasma by ultracentrifugation
Assay type: ADME, cell-free
Settings: read-out: PPB (converted)
Property Name: fraction unbound
Respond numerically, and do not add a unit to the figure.

[in] Which fraction unbound is listed for CSc1ccc(-c2ccccc2[C@@H]2CCC(F)(F)C[C@H]2C(=O)NCC#N)cc1 ?
[out] 0.15

###

Test: Half life in dog at 5 mL/kg, po
Format: ADME, organism-based, Canis lupus familiaris
Conditions: in vivo
Property Name: half-life (h)

P: CS(=O)(=O)c1ccc(-c2cn(CC(F)(F)F)nc2[C@@H]2CCC(F)(F)C[C@H]2C(=O)NC2(C#N)CC2)cc1
Q: CS(=O)(=O)c1ccc(-c2cn(CC(F)(F)F)nc2[C@@H]2CCC(Cl)(Cl)C[C@H]2C(=O)NC2(C#N)CC2)cc1
[in] Returns the identifier with the smallest measured half-life among P and Q . Give the chosen item's label as your response.
[out] P
(P: 7.8 h, Q: 34 h)

###

Assay: Inhibition of bone resorption in rhesus monkey bone
Format: functional, tissue-based, Macaca mulatta, Bone element
Property Name: IC50 (nM)
Number only, in nM; omit the unit.

[in] Data request, read-out IC50, for CS(=O)(=O)c1ccc(-c2cn(CC(F)(F)F)nc2[C@@H]2CCC(Cl)(Cl)C[C@H]2C(=O)NC2(C#N)CC2)cc1
[out] 2

###

Test: Half life in rat at 10 mL/kg, po
Format: ADME, organism-based
Conditions: in vivo
Property Name: half-life (min)

substance_smiles=CS(=O)(=O)c1ccc(-c2cn(CC(F)(F)F)nc2[C@@H]2CCC(Cl)(Cl)C[C@H]2C(=O)NC2(C#N)CC2)cc1 units=min measured_result=264
substance_smiles=CS(=O)(=O)c1ccc(-c2cn(CC(F)(F)F)nc2[C@@H]2CCC(F)(F)C[C@H]2C(=O)NC2(C#N)CC2)cc1 units=min measured_result=264

###

Experiment: Clearance in rat at 10 mL/kg, po
Assay type: ADME, organism-based
Conditions: in vivo
Property Name: CL/F (mL/min/kg)

a: CS(=O)(=O)c1ccc(-c2cn(CC(F)(F)F)nc2[C@@H]2CCC(F)(F)C[C@H]2C(=O)NC2(C#N)CC2)cc1
b: CS(=O)(=O)c1ccc(-c2cn(CC(F)(F)F)nc2[C@@H]2CCC(Cl)(Cl)C[C@H]2C(=O)NC2(C#N)CC2)cc1
[in] Please tell me which of the two, a or b , has the higher reported CL/F value. # respond with the chosen item's label
[out] a

###

Target: Cathepsin K (Oryctolagus cuniculus, UniProt P43236)
Sequence (P43236 whole entry): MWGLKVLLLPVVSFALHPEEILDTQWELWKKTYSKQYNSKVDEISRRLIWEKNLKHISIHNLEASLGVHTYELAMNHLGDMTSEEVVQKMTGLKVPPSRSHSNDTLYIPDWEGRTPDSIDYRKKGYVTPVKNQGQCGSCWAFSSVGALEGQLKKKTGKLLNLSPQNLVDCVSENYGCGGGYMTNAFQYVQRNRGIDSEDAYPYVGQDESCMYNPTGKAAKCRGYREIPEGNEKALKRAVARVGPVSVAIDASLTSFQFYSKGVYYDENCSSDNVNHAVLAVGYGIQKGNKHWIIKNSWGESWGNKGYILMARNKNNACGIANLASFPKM
Experiment: Inhibition of rabbit cathepsin K
Property Name: IC50 (nM)

substance_smiles=CS(=O)(=O)c1ccc(-c2cn(CC(F)(F)F)nc2[C@@H]2CCC(Cl)(Cl)C[C@H]2C(=O)NC2(C#N)CC2)cc1 target_system="Cathepsin K (Oryctolagus cuniculus, UniProt P43236)" property_name=IC50 measured_result=6.1
substance_smiles=Cn1cc(-c2ccc(S(C)(=O)=O)cc2)c([C@@H]2CCC(F)(F)C[C@H]2C(=O)NC2(C#N)CC2)n1 target_system="Cathepsin K (Oryctolagus cuniculus, UniProt P43236)" property_name=IC50 measured_result=4.5

###

Experiment: Oral bioavailability in rhesus monkey at 1 mL/kg
Format: ADME, organism-based, Macaca mulatta
Settings: in vivo
Property Name: bioavailability (%)
Please respond with the number in % and leave the unit unwritten.

[in] For CS(=O)(=O)c1ccc(-c2cn(CC(F)(F)F)nc2[C@@H]2CCC(Cl)(Cl)C[C@H]2C(=O)NC2(C#N)CC2)cc1 , what is its reported bioavailability?
[out] 104

###

Assay: Protein binding in rabbit plasma by ultracentrifugation
Format: ADME, cell-free, Oryctolagus cuniculus
Details: read-out: PPB (converted)
Property Name: fraction unbound
# output: bare number, no unit

[in] Data request, read-out fraction unbound, for CSc1ccc(-c2ccccc2[C@@H]2CCC(F)(F)C[C@H]2C(=O)NCC#N)cc1
[out] 0.15

###

Experiment: Selectivity for rabbit cathepsin K over human cathepsin B
Parameter: Selectivity ratio. Scope: all listed entries.

substance_smiles=CSc1ccc(-c2ccccc2[C@@H]2CCC(F)(F)C[C@H]2C(=O)NCC#N)cc1 property_name="Selectivity ratio" measured_result="> 36000"

[in] Quick one: Selectivity ratio of CS(=O)(=O)c1ccc(-c2cn(CC(F)(F)F)nc2[C@@H]2CCC(Cl)(Cl)C[C@H]2C(=O)NC2(C#N)CC2)cc1 ?
[out] > 16000

[in] Consider the molecule shown here: CS(=O)(=O)c1ccc(-c2cn(CC(F)(F)F)nc2[C@@H]2CCC(F)(F)C[C@H]2C(=O)NC2(C#N)CC2)cc1 What is its recorded Selectivity ratio?
[out] > 14000
